# experimental.target: T1, IL-18 receptor on HEK-Blue IL18R reporter cells (UniProt Q13478 19-541; O95256 20-599, limits assumed)
# T1 sequence (looked up) 1: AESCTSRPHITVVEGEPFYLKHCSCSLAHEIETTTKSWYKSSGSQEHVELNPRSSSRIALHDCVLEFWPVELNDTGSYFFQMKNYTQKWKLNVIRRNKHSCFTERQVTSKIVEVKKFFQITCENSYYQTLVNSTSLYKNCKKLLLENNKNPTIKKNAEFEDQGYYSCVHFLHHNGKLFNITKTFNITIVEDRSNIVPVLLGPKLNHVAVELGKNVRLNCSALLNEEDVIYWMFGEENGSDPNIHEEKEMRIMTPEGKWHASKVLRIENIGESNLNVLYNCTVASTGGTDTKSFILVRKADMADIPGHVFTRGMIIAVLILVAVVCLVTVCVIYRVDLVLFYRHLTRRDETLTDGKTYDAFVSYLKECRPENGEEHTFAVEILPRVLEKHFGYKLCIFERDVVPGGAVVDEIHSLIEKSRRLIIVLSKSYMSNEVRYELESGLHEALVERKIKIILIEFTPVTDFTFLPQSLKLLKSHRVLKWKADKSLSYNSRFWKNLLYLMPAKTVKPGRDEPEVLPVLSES
# T1 sequence (looked up) 2: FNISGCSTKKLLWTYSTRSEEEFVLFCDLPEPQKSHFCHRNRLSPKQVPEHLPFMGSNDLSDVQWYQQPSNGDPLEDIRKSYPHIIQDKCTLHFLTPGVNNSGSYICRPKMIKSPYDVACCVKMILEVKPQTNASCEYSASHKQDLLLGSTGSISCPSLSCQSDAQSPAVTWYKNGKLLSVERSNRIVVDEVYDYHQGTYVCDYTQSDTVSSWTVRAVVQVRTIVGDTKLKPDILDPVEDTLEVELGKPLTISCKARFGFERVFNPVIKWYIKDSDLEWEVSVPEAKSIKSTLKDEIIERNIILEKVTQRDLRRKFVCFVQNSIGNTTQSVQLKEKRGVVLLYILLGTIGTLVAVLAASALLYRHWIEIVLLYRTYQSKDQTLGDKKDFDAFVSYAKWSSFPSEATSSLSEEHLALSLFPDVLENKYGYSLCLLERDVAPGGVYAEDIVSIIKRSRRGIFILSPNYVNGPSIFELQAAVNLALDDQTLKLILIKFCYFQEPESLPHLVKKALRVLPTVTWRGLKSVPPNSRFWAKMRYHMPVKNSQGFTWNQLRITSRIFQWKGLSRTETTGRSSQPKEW
# protocol.description: cell-based or functional assay
Measured EC50, HEK-Blue IL18R reporter (SEAP) values are reported for all entries that follow.
Record the value in nM, omitting the unit from your answer.

Reference set, count: 2
{"binder": "modified IL-18 polypeptide SEQ ID NO: 234 (E6K, V11I, C38A, K53A, T63A, C76A, Q103R, C127A) (ligand) YFGKLKSKLSIIRNLNDQVLFIDQGNRPLFEDMTDSDARDNAPRTIFIISMYADSQPRGMAVAISVKCEKISTLSAENKIISFKEMNPPDNIKDTKSDIIFFRRSVPGHDNKMQFESSSYEGYFLAAEKERDLFKLILKKEDELGDRSIMFTVQNED", "EC50, HEK-Blue IL18R reporter (SEAP) [nM]": 0.26}
{"binder": "modified IL-18 polypeptide SEQ ID NO: 30 (E6K, V11I, C38A, K53A, T63A, C76A, C127A) (ligand) YFGKLKSKLSIIRNLNDQVLFIDQGNRPLFEDMTDSDARDNAPRTIFIISMYADSQPRGMAVAISVKCEKISTLSAENKIISFKEMNPPDNIKDTKSDIIFFQRSVPGHDNKMQFESSSYEGYFLAAEKERDLFKLILKKEDELGDRSIMFTVQNED", "EC50, HEK-Blue IL18R reporter (SEAP) [nM]": 0.053}

Briefly, EC50, HEK-Blue IL18R reporter (SEAP) measured for modified IL-18 polypeptide SEQ ID NO: 205 (V11I, C38A, K53A, T63A, C76A, C127A) (ligand) YFGKLESKLSIIRNLNDQVLFIDQGNRPLFEDMTDSDARDNAPRTIFIISMYADSQPRGMAVAISVKCEKISTLSAENKIISFKEMNPPDNIKDTKSDIIFFQRSVPGHDNKMQFESSSYEGYFLAAEKERDLFKLILKKEDELGDRSIMFTVQNED : 0.17
